Assay: Dicamba decarboxylation activity of computationally designed protein variants
Conditions: Table 4, variants designed to introduce activity

{"molecule": "117 (protein, Dicamba decarboxylase variant clone DC.5.008) MAKKPRIDMHSHFFPRISEQEAAKFDANHAPWLQVSAKGDTGSIMMGKNNFRPVYQALWDPAFRIEEMDAQGVDVQVTCATPVMFGYTWEANKAAQWAERMNDFALEFAAHNPQRIKVLAQVPLQDLDLACKEASRAVAAGHLGIQIGNHLGDKDLDDATLEAFLTHCANEDIPILVHPWDMMGGQRMKKWMLPVLVAAPAEVQLAILSLILSGAFERIPKSLKICFAGGGGSFAFLLGIVDLAWRHRDIVREDCPRPPSEYVDRFFVDSLVFNPGALELLVSVMGEDRVMLGSDYPFPTGEQKIGGLVLSSNLGESAKDKIISGNASKFFNINV", "Dicamba Decarboxylation activity": "Yes"}
{"molecule": "120 (protein, Dicamba decarboxylase variant clone DC.12.002) MAIIDCHGHYTTTPKGVETYRNAQKAAVAKDPSFKYEKGQVVVSDDEIRESIENNQLKMQRERGTDLTIFSPRSTAGGHHIGNEYTSQFWTEHQNDLIRRVCDLFPKNFAPVAQLPQSPGVDPAKSVPEIVRTVEQMGFIGINLNPDPSGGYWKDTSLADRAFYPIYEKMVEYDIPAMIHPRNACNDCFHTTGSHALGADTTGFQQLIMSDVFKDFPSLKIIIPHGGGAVPYHWGRFRGLMQDQGYAPLEESALKNIYFDTCVYHQRGIDLLLDIVPTQNILFASEMIGAVRGIDAETGHNFDDTKRYIDNNTALNAEEKAMIFEGNARRVFSRLKTD", "Dicamba Decarboxylation activity": "Yes"}

This collection of values is drawn from patent US20140287419A1.
